test: Half life in human liver microsomes; type: ADME, Microsome
Catalogue of half-life readings, one per entry.
Quick reminder: number only, in h, skip the unit.

These recorded examples may help you get a feel for the data.
CN(C)CCn1cnc2c(c(Nc3ccc(I)cc3F)cc(=O)n2C)c1=O
0.483
C#Cc1ccc(Nc2c(F)c(=O)n(C)c3ncn(C[C@@H](O)CO)c(=O)c23)c(F)c1
0.817
Cc1c(Nc2ccc(I)cc2F)c2c(=O)n(C[C@@H](O)CO)cnc2n(C)c1=O
1.95

Would you mind telling me what half-life value was observed for Cn1c(=O)c(F)c(Nc2ccc(I)cc2F)c2c(=O)n(C(CO)CO)cnc21 ?
0.517

---

test: Mean residence time in rat at 1 mg/kg, iv; format: ADME, organism-based; set-up: dose 1 mg/kg, route intravenous; conditions: in vivo
reportedMetric: MRT (h)
Quick reminder: number only, in h, skip the unit.

Would you mind telling me what MRT value was observed for Cn1c(=O)c(F)c(Nc2ccc(I)cc2F)c2c(=O)n(C[C@@H](O)CO)cnc21 [TAK-733] ?
2

---

assay: Oral bioavailability in mouse at […]; format: ADME, organism-based; conditions: in vivo
reportedMetric: bioavailability

Would you mind telling me what bioavailability value was observed for Cn1c(=O)c(F)c(Nc2ccc(I)cc2F)c2c(=O)n(C[C@@H](O)CO)cnc21 ?
67%

---

assay: Half life in human liver microsomes; type: ADME, Microsome
reportedMetric: half-life

These recorded examples may help you get a feel for the data.
Cn1cnc2c(c(Nc3ccc(I)cc3F)cc(=O)n2C)c1=O
> 200 min
Cn1c(=O)cc(Nc2ccc(I)cc2F)c2c(=O)n(C[C@@H](O)CO)cnc21
48 min

Would you mind telling me what half-life value was observed for Cn1c(=O)c(F)c(Nc2ccc(I)cc2F)c2c(=O)n(C[C@H](O)CO)cnc21 ?
183 min

Would you mind telling me what half-life value was observed for Cn1c(=O)cc(Nc2ccc(I)cc2F)c2c(=O)n(CCO)cnc21 ?
37 min

Would you mind telling me what half-life value was observed for Cn1c(=O)c(Cl)c(Nc2ccc(I)cc2F)c2c(=O)n(C[C@@H](O)CO)cnc21 ?
22 min

---

Catalogue of half-life readings, one per entry.
experiment: Half life in rat liver microsomes; format: ADME, Microsome

Cn1c(=O)cc(Nc2ccc(I)cc2F)c2c(=O)n(CCO)cnc21
11 min
Cc1c(Nc2ccc(I)cc2F)c2c(=O)n(CCO)cnc2n(C)c1=O
> 200 min
Cn1c(=O)cc(Nc2ccc(I)cc2F)c2c(=O)n(CCCO)cnc21
20 min
Cn1c(=O)c(F)c(Nc2ccc(Br)cc2F)c2c(=O)n(C[C@@H](O)CO)cnc21
49 min

Would you mind telling me what half-life value was observed for Cc1c(Nc2ccc(I)cc2F)c2c(=O)n(C[C@H](O)CO)cnc2n(C)c1=O ?
> 200 min

Would you mind telling me what half-life value was observed for Cn1c(=O)c(Cl)c(Nc2ccc(I)cc2F)c2c(=O)n(C[C@@H](O)CO)cnc21 ?
> 200 min

Would you mind telling me what half-life value was observed for Cn1c(=O)c(F)c(Nc2ccc(I)cc2F)c2c(=O)n(OC[C@H](O)CO)cnc21 ?
28 min

Would you mind telling me what half-life value was observed for Cn1c(=O)c(F)c(Nc2ccc(I)cc2F)c2c(=O)n(C(CO)CO)cnc21 ?
48 min

Would you mind telling me what half-life value was observed for Cn1c(=O)cc(Nc2ccc(I)cc2F)c2c(=O)n(C[C@H](O)CO)cnc21 ?
> 200 min
